- Tested target: INA Q148K (Human immunodeficiency virus type 1 group M subtype A, UniProt P24740, Q1288K/S1259P)
- Format: biochemical, HIV-1 subtype A strain FSU-A
- Experimental parameters: homologous strand transfer, 2 h, 100 nM IN, read-out: Inhibitory activity, IC50
Assay readout: IC50 (nM)
Give bare numbers, in nM.

Look at this compound and give its reported IC50. CN(C)S(=O)(=O)c1cc(O)c(O)c2c1CN(Cc1ccc(F)c(Cl)c1)C2=O
350

----------
- Tested target: INB E138K/Q148K (Human immunodeficiency virus type 1 group M subtype B, UniProt P04585, E1285K/Q1295K)
- Construct: The viral enzyme integrase (IN), which catalyzes the integration; His6 (N)
- Run description: Inhibition of homologous strand transfer reaction, INB E138K/Q148K
- Experimental parameters: homologous strand transfer, 2 h, 100 nM IN, read-out: Inhibitory activity, IC50
Assay readout: pIC50
Answers are plain numbers, as −log10 of the molar value.

Look at this molecule and give its reported pIC50. CN(C)S(=O)(=O)c1cc(O)c(O)c2c1CN(Cc1ccc(F)c(Cl)c1)C2=O [XZ-259]
6.30

----------
- Tested target: INA E138K/Q148K (Human immunodeficiency virus type 1 group M subtype A, UniProt P24740, E1278K/Q1288K/S1259P)
- Experimental parameters: homologous strand transfer, 2 h, 100 nM IN, read-out: Inhibitory activity, IC50
Assay readout: IC50 (µM)
Answers are plain numbers, in µM.

Look at this molecule and give its reported IC50. CN(C)S(=O)(=O)c1cc(O)c(O)c2c1CN(Cc1ccc(F)c(Cl)c1)C2=O
0.2

----------
- Tested target: INA G118R/E138K (Human immunodeficiency virus type 1 group M subtype A, UniProt P24740, E1278K/G1258R/S1259P)
- Experimental parameters: homologous strand transfer, 2 h, 100 nM IN, read-out: Inhibitory activity, IC50
Assay readout: pIC50
Answers are plain numbers, as −log10 of the molar value.

Look at this molecule and give its reported pIC50. CN(C)S(=O)(=O)c1cc(O)c(O)c2c1CN(Cc1ccc(F)c(Cl)c1)C2=O
7.52

----------
- Tested target: INB G118R (Human immunodeficiency virus type 1 group M subtype B, UniProt P04585, G1265R)
- Construct: The viral enzyme integrase (IN), which catalyzes the integration; His6 (N)
- Run description: Inhibition of homologous strand transfer reaction, INB G118R
- Experimental parameters: homologous strand transfer, 2 h, 100 nM IN, read-out: Inhibitory activity, IC50
Assay readout: IC50 (nM)
One number for each entry, in nM.

Look at this compound and give its reported IC50. CN(C)S(=O)(=O)c1cc(O)c(O)c2c1CN(Cc1ccc(F)c(Cl)c1)C2=O
80

----------
- Tested target: INA G140S/Q148K (Human immunodeficiency virus type 1 group M subtype A, UniProt P24740, G1280S/Q1288K/S1259P)
- Experimental parameters: homologous strand transfer, 2 h, 100 nM IN, read-out: Inhibitory activity, IC50
Assay readout: IC50 (nM)
One number for each entry, in nM.

Look at this compound and give its reported IC50. CN(C)S(=O)(=O)c1cc(O)c(O)c2c1CN(Cc1ccc(F)c(Cl)c1)C2=O
600

----------
- Tested target: INA G140S (Human immunodeficiency virus type 1 group M subtype A, UniProt P24740, G1280S/S1259P)
- Experimental parameters: homologous strand transfer, 2 h, 100 nM IN, read-out: Inhibitory activity, IC50
Assay readout: pIC50
Answers are plain numbers, as −log10 of the molar value.

Look at this compound and give its reported pIC50. CN(C)S(=O)(=O)c1cc(O)c(O)c2c1CN(Cc1ccc(F)c(Cl)c1)C2=O [XZ-259]
6.82

----------
- Tested target: INB G140S/Q148K (Human immunodeficiency virus type 1 group M subtype B, UniProt P04585, G1287S/Q1295K)
- Construct: The viral enzyme integrase (IN), which catalyzes the integration; His6 (N)
- Run description: Inhibition of homologous strand transfer reaction, INB G140S/Q148K
- Experimental parameters: homologous strand transfer, 2 h, 100 nM IN, read-out: Inhibitory activity, IC50
Assay readout: IC50 (nM)
Answers are plain numbers, in nM.

Look at this compound and give its reported IC50. CN(C)S(=O)(=O)c1cc(O)c(O)c2c1CN(Cc1ccc(F)c(Cl)c1)C2=O [XZ-259]
850

----------
- Tested target: INA G118R (Human immunodeficiency virus type 1 group M subtype A, UniProt P24740, G1258R/S1259P)
- Experimental parameters: homologous strand transfer, 2 h, 100 nM IN, read-out: Inhibitory activity, IC50
Assay readout: IC50 (nM)
Give bare numbers, in nM.

Look at this molecule and give its reported IC50. CN(C)S(=O)(=O)c1cc(O)c(O)c2c1CN(Cc1ccc(F)c(Cl)c1)C2=O [XZ-259]
40

----------
- Tested target: INA (consensus integrase of HIV-1 subtype A strain FSU-A), wild type (Human immunodeficiency virus type 1 group M subtype A, UniProt P24740, S1259P)
- Experimental parameters: homologous strand transfer, 2 h, 100 nM IN, read-out: Inhibitory activity, IC50
Assay readout: IC50 (nM)
Numbers only, in nM.

Look at this compound and give its reported IC50. CN(C)S(=O)(=O)c1cc(O)c(O)c2c1CN(Cc1ccc(F)c(Cl)c1)C2=O [XZ-259]
40

----------
- Tested target: INB Q148K (Human immunodeficiency virus type 1 group M subtype B, UniProt P04585, Q1295K)
- Construct: The viral enzyme integrase (IN), which catalyzes the integration; His6 (N)
- Run description: Inhibition of homologous strand transfer reaction, INB Q148K
- Experimental parameters: homologous strand transfer, 2 h, 100 nM IN, read-out: Inhibitory activity, IC50
Assay readout: IC50 (nM)
One number for each entry, in nM.

Request body: readout IC50, system INB Q148K (Human immunodeficiency virus type 1 group M subtype B, UniProt P04585, Q1295K), query CN(C)S(=O)(=O)c1cc(O)c(O)c2c1CN(Cc1ccc(F)c(Cl)c1)C2=O . Return the value.
600

----------
- Tested target: INB E138K (Human immunodeficiency virus type 1 group M subtype B, UniProt P04585, E1285K)
- Construct: The viral enzyme integrase (IN), which catalyzes the integration; His6 (N)
- Run description: Inhibition of homologous strand transfer reaction, INB E138K
- Experimental parameters: homologous strand transfer, 2 h, 100 nM IN, read-out: Inhibitory activity, IC50
Assay readout: IC50 (nM)
Numbers only, in nM.

Look at this compound and give its reported IC50. CN(C)S(=O)(=O)c1cc(O)c(O)c2c1CN(Cc1ccc(F)c(Cl)c1)C2=O [XZ-259]
70
